test system: SF-295 CNS; assay: NCI tumour cell line growth inhibition, 48 h
measurement label: TGI (µM)
Write the value in µM as a bare number.

Name the reported TGI value associated with the molecule COc1cccc(-c2nc3c(C(=O)NCCN(C)C)cccc3[nH]2)c1
47.6

Fill in the blank: the reported TGI of O=[N+]([O-])c1cccc2nccc(NCC(O)CO)c12 (stereo not given) is ____.
53.7

Suppose we examine the molecule Cc1nc2cccc(NCc3ccc(C(=O)NO)cc3)c2c(=O)n1-c1ccccc1 ; what TGI value has been reported?
3.54

Give its TGI value. Item: COC1OC(CO)C(O)C(OC(=O)c2cc(O)c(O)c(O)c2)C1OC(=O)c1cc(O)c(O)c(O)c1 (stereo not given)
42.1

What does the record list as TGI for CCOC(=O)n1cncc1CC(NC(=O)Cc1c(C(=O)C=C(C)C)[nH]c2ccccc12)C(=O)OC (stereo not given) ?
35.5

# get_value(readout='TGI', item= C=C(CN1CCc2ccccc2C1)c1ccc(C(=O)Nc2ccc(N)cc2)cc1 )
59.4

Given COc1ccc(CN(CCc2c[nH]c3ccccc23)Cc2ccc(OC)cc2)cc1 , state its recorded TGI.
5.78

# get_value(readout='TGI', item= C=C[C@H]1CN2CCc3c([nH]c4c([C@H]5CCCN5C)c(O)ccc34)[C@@H]2C[C@@H]1C[C@H]1c2[nH]c3ccccc3c2CCN1C )
3.25

---

system: CCRF-CEM leukemia; assay: NCI tumour cell line growth inhibition, 48 h
measurement label: TGI (µM)
Reply with just the number (in µM).

Notebook: pull reported TGI for CCRF-CEM leukemia, entry OCCCCC#Cc1ccccc1C#Cc1ccccc1C(F)(F)F
17.2

Request - read-out TGI | tested on CCRF-CEM leukemia | molecule CN(C)CCNc1ccc2c(=O)n(CCN(C)C)c(=O)n3c4ccc(N)cc4c(=O)c1c23
0.16

Look up TGI with CCRF-CEM leukemia for this molecule: CCC(=O)COc1ccc(NC(NC(=O)C(C(F)(F)F)C(F)(F)F)(C(F)(F)F)C(F)(F)F)cc1
61.8

Return TGI measured with CCRF-CEM leukemia given this molecule: C=C(C)[C@@H]1CC[C@]2(C(=O)O)CC[C@]3(C)[C@H](CC[C@@H]4[C@@]5(C)CC[C@H](C(=O)/C=C/c6ccc(O)cc6)C(C)(C)[C@@H]5CC[C@]43C)[C@@H]12
23.6

---

system: UO-31 renal; experiment: NCI tumour cell line growth inhibition, 48 h; in the data active means GI50 below about 0.43 µM; inactive means the rest
Returns: one label drawn from yes for active, no for inactive

Per the assay record, what outcome was assigned to CCN(CC)CCOc1ccc(/C=C2\CC3C4CC=C5C[C@@H](N6CCCC6)CC[C@]5(C)C4CC[C@]3(C)[C@H]2O)cc1OC (some centres not stated) ?
no

Outcome logged for C=C(CN1CCc2ccccc2C1)c1ccc(C(=O)Nc2ccc(N)cc2)cc1 in this assay:
no

Lab log entry: O=c1cc(-c2ccccc2)nc2n1CCN2Cc1ccccc1 — outcome as called in the assay?
no

Identify the outcome logged in this assay for the compound shown: OCCCCC#Cc1ccccc1C#Cc1ccccc1C(F)(F)F
no

# lookup: test call for N=C(N)CCCCCCCCC(=N)N
no

Given COc1ccc(-c2nc(-c3ccccc3)c(-c3ccccc3)n2C2CC2)cc1OC1CCCC1 , state the outcome it received in this test.
no

Would you mind telling me which call this test gave CN(C)Cc1ccc(C(=O)Nc2ccc3ncnc(Nc4ccc(Oc5cccc(F)c5)c(Cl)c4)c3c2)cc1 ?
no

Could you check what this test reported for O=C1C=Cc2ccccc2/C1=C/c1[nH]c(=O)[nH]c1O ?
no

Any idea what this test logged for O=C(Nc1ncc(Cc2ccccc2Cl)s1)c1ccc2c(c1)OCCO2 ?
no

// outcome(item) with item = O=C(Oc1ccc(CCl)cc1)c1ccccc1
yes

Each compound tested received a call. Report the one for Cc1cc(S(=O)(=O)Nc2nnc(-c3ccccc3)c(-c3ccccc3)n2)c(SCc2ccccc2)cc1Cl .
no

I'd appreciate the recorded outcome for C[C@H]1CCC/C=C/[C@@H]2C[C@H](O)C[C@H]2[C@H](O)[C@@H](S(=O)CCN(C)C)CC(=O)O1 (some centres not stated) from this test.
yes

---

test system: OVCAR-8 ovarian; assay: NCI tumour cell line growth inhibition, 48 h; in the data active means GI50 below about 0.43 µM; inactive means the rest
Could you please pick one outcome from this set? 1 (active), 0 (inactive)

What did the test return for O=C1c2ccccc2-c2c1c1ccccc1c(=O)n2CCNCCNCCn1c2c(c3ccccc3c1=O)C(=O)c1ccccc1-2 ?
1

Could you please tell me the result logged for C[C@H]1CCC/C=C/[C@@H]2C[C@H](O)C[C@H]2[C@H](O)[C@@H](S(=O)CCN(C)C)CC(=O)O1 (stereo not given in full) in this assay?
1

Field: outcome | Entry: Cc1nc2cccc(NCc3ccc(C(=O)NO)cc3)c2c(=O)n1-c1ccccc1
0

What did this assay record as the result for CCN(CC)CCCCCCCNc1c2ccc(Cl)cc2nc2ccc(OC)cc12 ?
0

Could you please tell me the result logged for O=C(C(Br)Br)C(Br)C(Br)c1ccccc1 (stereo not given) in this assay?
0

---

test system: HCT-116 colon; experiment: NCI tumour cell line growth inhibition, 48 h
Label label 0 if TGI falls below 9 µM; label label 1 in every other case.

Entry COc1cc2[nH]c(-c3cccc(N(C)C)c3)cc(=O)c2cc1OC : is its TGI no less than 9 µM?
label 1

Exam item: decide whether the reported TGI for Cc1cc2oc(=O)[nH]c(=S)c2c(C)c1C is at least 9 µM.
label 1

Quick check: does CC(=O)Nc1ccc2c(C)c3c4ccccc4n(C)c3nc2n1 have TGI greater than or equal to 9 µM?
label 1

Check if TGI >= 9 µM (inclusive). Item: Nc1c(-c2nc3ccccc3[nH]2)sc(=S)n1-c1ccccc1
label 1

Determine whether this compound has TGI no lower than 9 µM: C[C@H]1CCC/C=C/[C@@H]2C[C@H](O)C[C@H]2[C@H](O)[C@@H](S(=O)CCN(C)C)CC(=O)O1 (stereo not given in full)
label 0

Does TGI meet or surpass 9 µM for CC1=Cc2cc3[n-]c(cc4nc(cc5[n-]c(cc1n2)cc5C)C(C)=C4CCC(=O)O)c(CCC(=O)O)c3C.[Pd+2] ?
label 1

Does the compound O=S(=O)(O)c1c(N=Nc2c(O)ccc3ccccc23)ccc2ccccc12 have recorded TGI that is 9 µM or more?
label 1

Does CCN(CC)CCS(=O)c1c2cc(OC)ccc2nc2ccc(OC)cc12 (stereo not given) have a reported TGI of at least 9 µM?
label 0

Kindly determine if TGI recorded for COC(=O)CC1C(=O)OCc2c1cc1n(c2=O)Cc2c-1nc1ccccc1c2OC (stereo not given) is above or exactly 9 µM.
label 1

In plain terms: is recorded TGI at least 9 µM for CCOC(=O)Oc1c(OC)cc(C(=O)O[C@@H]2C[C@@H]3CN4CCc5c([nH]c6cc(OC)ccc56)[C@H]4C[C@@H]3[C@H](C(=O)OC)[C@H]2OC)cc1OC ?
label 0

Confirm if TGI reported for the compound C=CCOCn1ccc(=O)[nH]c1=O is 9 µM or above.
label 1

Quick check: does CC(C)CC1c2[nH]c3ccccc3c2C[C@H]2C(=O)NC(CCC(=O)OC(C)(C)C)C(=O)N12 (stereo not given in full) have TGI greater than or equal to 9 µM?
label 1

Hi, just wondering whether c1ccc(N=C2c3ccccc3C3=NCCCN32)cc1 shows TGI of 9 µM or higher.
label 1

Exam item: decide whether the reported TGI for O=C1CC2(CCC(O)(c3ccc(Cl)cc3)C(C(=O)c3ccc(Cl)cc3)C2)C(=O)c2ccccc2N1 (stereo not given) is at least 9 µM.
label 1

Evaluate COc1ccc2c3ccc4c(c3n(C)c2c1)C(=O)c1ccccc1C4=O : TGI at minimum 9 µM?
label 1

Hi team, for CC(O)C(O)C(N)CC=O (stereo not given) , is the recorded TGI at or above 9 µM?
label 1

Record COc1cc2cc(C(=O)N3CC(CCl)c4ccc(NCCN)cc43)[nH]c2c(OC)c1OC (stereo not given) ; criterion: TGI no lower than 9 µM. Met?
label 1

# check: TGI of S=C(Nc1ccc(Cl)cc1)Nc1ccc(Cl)cc1 (tested in a mixture with another compound) is greater than or equal to 9 µM
label 0

---

Hi there, I'd appreciate the recorded TGI for every entry that follows.
system: UACC-62 melanoma; test: NCI tumour cell line growth inhibition, 48 h

What value of TGI has been recorded for this entry: c1ccc(N=C2c3ccccc3C3=NCCCN32)cc1
> 100 µM

Requested field: TGI. Item: CCOC(=O)c1ccc(N2C(=O)/C(=C\OC)c3ccccc3C2=O)cc1
> 100 µM

GET /values?readout=TGI&item= O=C(NOCC1CC1)c1ccc(F)c(F)c1Nc1ccc(I)cc1Cl
1.41 µM

Param item = C[C@]12CC(c3ccccc3O1)C(C(=O)NC13CC4CC(CC(C4)C1)C3)C(=O)N2 (some centres not stated) ; retrieve measured TGI.
> 100 µM

What value of measured TGI is listed for N#CS/C(Cl)=C(/C(Cl)=C(Cl)Cl)[N+](=O)[O-] ?
> 100 µM

Entry C/C=C(\C)C(=O)O[C@H]1C=CC(=O)O[C@H]1CNC(=O)[C@H](C)O : reported TGI = ?
30.5 µM

Form field: reported TGI of N=C(N)CCCCCCCCC(=N)N
> 100 µM

Need TGI of COC(=O)C(Nc1ccc(OC)cc1)c1ccccc1 (configuration not stated) , thanks.
> 100 µM

Using the record for CCOC(=O)C(C)c1cc(C2(C)OCCO2)c(C)o1 (configuration not stated) , report its TGI.
> 100 µM

Return reported TGI; argument: Cc1c2cc[nH]c(=O)c2cc2c(=O)c3cnccc3[nH]c12
> 100 µM

GET /values?readout=TGI&item= CC(O)C(O)C(N)CC=O (configuration not stated)
> 500 µM

Reported TGI, molecule COC(=O)c1c(C(=O)OC)c2cc(C(=O)c3ccccc3)ccn2c1Cl : ____
88.4 µM
